Target: TrkB (Homo sapiens (Human), UniProt Q16620 32-430)
Sequence (Q16620 32-430 limits assumed): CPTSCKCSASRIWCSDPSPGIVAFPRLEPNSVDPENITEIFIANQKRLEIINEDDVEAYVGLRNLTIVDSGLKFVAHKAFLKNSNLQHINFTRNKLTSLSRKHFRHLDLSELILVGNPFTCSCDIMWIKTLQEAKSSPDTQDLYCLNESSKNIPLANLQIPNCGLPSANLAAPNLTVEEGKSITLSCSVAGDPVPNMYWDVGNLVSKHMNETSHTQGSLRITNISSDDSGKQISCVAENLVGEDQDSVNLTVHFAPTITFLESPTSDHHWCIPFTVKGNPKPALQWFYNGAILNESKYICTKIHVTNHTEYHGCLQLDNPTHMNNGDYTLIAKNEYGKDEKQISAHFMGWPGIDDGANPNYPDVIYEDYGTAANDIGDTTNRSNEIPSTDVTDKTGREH
Experiment: koff of Fab at 25 C; T1/2=Log2/koff
A collection of binders and their measured T1/2

{"Binder": "2-B1 (Fab, V domains shown, Fab) VH: QVQLVQSGAEVKKPGASVKVSCKASGYTFTNYVILWVRQAPGQGLEWMGYINPYNDGTKYNEKFKGRVTMTRDTSTSTVYMELSSLRSEDTAVYYCARLLKYRRFSYYAIDYWGQGTTVTVSS VL: DIQMTQSPSSLSASVGDRVTITCRASENVYSNLAWYQQKPGKAPKLLIYAASNLQSGVPSRFSGSGSGTDFTFTISSLQPEDIATYYCQNFWYSPFTFGQGTKLEIK", "U": "min", "T1/2": 0.32}
{"Binder": "4B12-13 (Fab, V domains shown, Fab) VH: QVQLVQSGAEVKKPGASVKVSCKASGYTFTNYDIIWVRQAPGQGLEWMGYINPYNGRREYNAKFKGRVTMTRDTSTSTVYMELSSLRSEDTAVYYCARLLKYRRFRYYAIDYWGQGTTVTVSS VL: DIQMTQSPSSLSASVGDRVTITCRASEPVYSNVAWYQQKPGKAPKLLIYAASNLQSGVPSRFSGSGSGTDYTFTISSLQPEDIATYYCQHFWGSPFTFGQGTKLEIK", "U": "min", "T1/2": 13.7}
{"Binder": "4B12-18 (Fab, V domains shown, Fab) VH: QVQLVQSGAEVKKPGASVKVSCKASGYTFTNYDIIWVRQAPGQGLEWMGYINPYAGRREYNEKFKGRVTMTRDTSTSTVYMELSSLRSEDTAVYYCARLLKYRRFRYYAIDYWGQGTTVTVSS VL: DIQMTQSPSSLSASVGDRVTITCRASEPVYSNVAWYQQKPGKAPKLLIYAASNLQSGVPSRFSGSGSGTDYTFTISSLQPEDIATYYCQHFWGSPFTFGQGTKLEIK", "U": "min", "T1/2": 3.8}
